Below are IC50 values recorded for Angiotensin-converting enzyme (Homo sapiens).
Measurement type: IC50 (µM)

1. CCCCC(CC(=O)NO)S(=O)(=O)c1ccc2ccccc2c1 (stereo unspecified) = 12.4
2. CCCCC(CC(=O)NO)S(=O)(=O)c1ccccc1 (stereo unspecified) = 81
3. CCCC[C@H](CC(=O)NO)S(=O)(=O)c1ccccc1 = 34

---

System: Bacillus subtilis
Assay: In vitro antibacterial activity against Bacillus subtilis ATCC 585969.
Type: functional
Reported MIC values follow for various compounds
Measurement type: MIC (µg/mL)

1. CCCCC(CC(=O)NO)[S+]([O-])c1ccccc1 (centres undefined) = 0.25
2. CCCCC(CC(=O)NO)S(=O)(=O)c1ccccc1 (centres undefined) = 1
3. CCCC[C@H](CC(=O)NO)S(=O)(=O)c1ccccc1 = 1
4. CCCCC[C@H](CC(=O)NO)C(=O)N[C@H](C(=O)N1CCC[C@H]1CO)C(C)C = 8

---

Target: Matrilysin (Homo sapiens)
Sequence (P09237 whole entry): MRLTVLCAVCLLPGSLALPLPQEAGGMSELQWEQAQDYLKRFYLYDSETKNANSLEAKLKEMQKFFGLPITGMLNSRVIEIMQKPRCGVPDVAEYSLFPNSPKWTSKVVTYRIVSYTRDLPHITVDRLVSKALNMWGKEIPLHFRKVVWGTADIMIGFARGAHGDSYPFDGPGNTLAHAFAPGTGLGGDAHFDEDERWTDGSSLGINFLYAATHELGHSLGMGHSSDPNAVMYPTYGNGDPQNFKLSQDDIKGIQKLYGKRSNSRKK
A collection of molecules and their measured IC50
Measurement type: IC50

1. CCCCC(CC(=O)NO)S(=O)(=O)c1ccc2ccccc2c1 (configuration not stated) = 1500 nM
2. CCCCC(CC(=O)NO)S(=O)(=O)C1CCCCC1 (configuration not stated) = 290 nM

---

Biological target: Interstitial collagenase (Homo sapiens)
Sequence (P03956 whole entry): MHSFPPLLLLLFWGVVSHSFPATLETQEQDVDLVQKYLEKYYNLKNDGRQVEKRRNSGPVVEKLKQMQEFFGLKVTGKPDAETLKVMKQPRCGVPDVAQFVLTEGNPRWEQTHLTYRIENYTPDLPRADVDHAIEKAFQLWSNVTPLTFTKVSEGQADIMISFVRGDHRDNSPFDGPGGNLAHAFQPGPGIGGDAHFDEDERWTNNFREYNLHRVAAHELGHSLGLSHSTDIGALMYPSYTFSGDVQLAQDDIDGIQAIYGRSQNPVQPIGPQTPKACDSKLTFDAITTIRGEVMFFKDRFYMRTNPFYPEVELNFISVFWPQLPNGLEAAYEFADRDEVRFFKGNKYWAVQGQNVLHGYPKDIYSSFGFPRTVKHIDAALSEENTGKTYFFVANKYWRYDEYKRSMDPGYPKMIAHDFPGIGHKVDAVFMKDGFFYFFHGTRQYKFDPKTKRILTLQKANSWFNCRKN
Entries annotated with measured IC50
Measurement type: IC50 (nM)

1) CCCCC(CC(=O)NO)S(=O)(=O)C1CCCCC1 (stereo unspecified) = 54
2) CCCCC(CC(=O)NO)S(=O)(=O)c1ccc2ccccc2c1 (stereo unspecified) = 70
3) CCCC[C@H](CC(=O)NO)S(=O)(=O)c1ccccc1 = 150
4) CCCCC(CC(=O)NO)[S+]([O-])c1ccccc1 (stereo unspecified) = 93
5) CCCCC(CC(=O)NO)S(=O)(=O)c1ccccc1 (stereo unspecified) = 110
6) CCCC[C@@H](CC(=O)NO)S(=O)(=O)c1ccccc1 = 300

---

Target: Neprilysin (Rattus norvegicus)
Sequence (P07861 whole entry): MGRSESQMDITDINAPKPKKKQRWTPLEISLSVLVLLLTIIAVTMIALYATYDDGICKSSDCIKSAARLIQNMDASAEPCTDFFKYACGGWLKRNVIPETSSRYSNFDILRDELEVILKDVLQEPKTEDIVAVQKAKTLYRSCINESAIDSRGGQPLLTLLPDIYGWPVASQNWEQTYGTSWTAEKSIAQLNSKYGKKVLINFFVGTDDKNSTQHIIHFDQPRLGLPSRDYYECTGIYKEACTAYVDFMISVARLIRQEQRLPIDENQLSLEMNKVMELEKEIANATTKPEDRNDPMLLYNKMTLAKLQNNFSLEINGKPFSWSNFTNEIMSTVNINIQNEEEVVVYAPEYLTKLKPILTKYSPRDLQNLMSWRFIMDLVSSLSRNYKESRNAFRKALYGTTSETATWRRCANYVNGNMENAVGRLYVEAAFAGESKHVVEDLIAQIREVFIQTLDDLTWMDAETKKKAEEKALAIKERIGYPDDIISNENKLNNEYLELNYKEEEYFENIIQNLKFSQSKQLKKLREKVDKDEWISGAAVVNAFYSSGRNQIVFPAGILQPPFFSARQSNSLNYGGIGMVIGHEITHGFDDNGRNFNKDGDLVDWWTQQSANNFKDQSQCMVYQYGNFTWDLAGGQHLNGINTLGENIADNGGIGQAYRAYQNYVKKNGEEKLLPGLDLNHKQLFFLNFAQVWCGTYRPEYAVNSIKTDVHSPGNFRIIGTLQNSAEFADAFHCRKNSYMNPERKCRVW
Test: Inhibitory activity against neutral endopeptidase enzyme (NEP).
pIC50: −log10 of the molar value.
Measurement type: pIC50

1. CCCCC(CC(=O)NO)S(=O)(=O)C1CCCCC1 (stereo not drawn) = 5.78
2. CCCCC(CC(=O)NO)S(=O)(=O)c1ccccc1 (stereo not drawn) = 4.74
3. CCCCC(CC(=O)NO)[S+]([O-])c1ccccc1 (stereo not drawn) = 5.59

---

The entries below are paired with their reported MIC.
System: Mycoplasmoides pneumoniae
Assay: In vitro antibacterial activity against Mycoplasma pneumoniae ATCC 29342.
Format: functional
Measurement type: MIC (µg/mL)

1. CCCC[C@H](CC(=O)NO)S(=O)(=O)c1ccccc1 = 0.5
2. CCCCC(CC(=O)NO)[S+]([O-])c1ccccc1 (centres undefined) = 0.25
3. CCCCC(CC(=O)NO)S(=O)(=O)c1ccccc1 (centres undefined) = 1

---

Molecular target: Peptide deformylase (Escherichia coli)
Sequence (Q9JN24 whole entry): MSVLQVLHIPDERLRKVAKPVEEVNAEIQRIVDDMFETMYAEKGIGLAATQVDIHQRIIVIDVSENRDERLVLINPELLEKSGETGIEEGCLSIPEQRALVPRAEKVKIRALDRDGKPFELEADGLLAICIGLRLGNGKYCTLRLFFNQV
Test: Inhibitory activity against isolated Escherichia coli peptidyl deformylase (PDF) enzyme containing iron.
Measurement type: IC50 (µM)

1. CCCCC(CC(=O)NO)[S+]([O-])c1cccc(OC)c1 (configuration not stated) = 0.094
2. CCCCC(CC(=O)NO)S(=O)(=O)c1cccc(OC)c1 (configuration not stated) = 0.086
3. CCCC(CC(=O)NO)S(=O)(=O)c1ccccc1 (configuration not stated) = 0.16
4. O=C(CC(c1ccccc1)S(=O)(=O)c1ccccc1)NO (configuration not stated) = 0.16
5. CCCCC(CC(=O)NO)[S+]([O-])c1ccc(OC)cc1 (configuration not stated) = 0.099
6. CCCCC(CC(=O)NO)S(=O)(=O)Cc1ccccc1 (configuration not stated) = 0.19
7. CCCCC(CC(=O)NO)S(=O)(=O)c1ccc(OC)cc1 (configuration not stated) = 0.031
8. CCCCC(CC(=O)NO)[S+]([O-])c1ccc(Br)cc1 (configuration not stated) = 0.21
9. CCCCCC(CC(=O)NO)S(=O)(=O)c1ccccc1 (configuration not stated) = 0.14
10. CCCCC(CC(=O)NO)S(=O)(=O)c1ccc2ccccc2c1 (configuration not stated) = 0.023
11. CCCCC(CC(=O)NO)S(=O)(=O)c1ccc(NC(C)=O)cc1 (configuration not stated) = 0.011
12. CCCCC(CC(=O)NO)[S+]([O-])c1ccc2ccccc2c1 (configuration not stated) = 0.064

---

Target chain: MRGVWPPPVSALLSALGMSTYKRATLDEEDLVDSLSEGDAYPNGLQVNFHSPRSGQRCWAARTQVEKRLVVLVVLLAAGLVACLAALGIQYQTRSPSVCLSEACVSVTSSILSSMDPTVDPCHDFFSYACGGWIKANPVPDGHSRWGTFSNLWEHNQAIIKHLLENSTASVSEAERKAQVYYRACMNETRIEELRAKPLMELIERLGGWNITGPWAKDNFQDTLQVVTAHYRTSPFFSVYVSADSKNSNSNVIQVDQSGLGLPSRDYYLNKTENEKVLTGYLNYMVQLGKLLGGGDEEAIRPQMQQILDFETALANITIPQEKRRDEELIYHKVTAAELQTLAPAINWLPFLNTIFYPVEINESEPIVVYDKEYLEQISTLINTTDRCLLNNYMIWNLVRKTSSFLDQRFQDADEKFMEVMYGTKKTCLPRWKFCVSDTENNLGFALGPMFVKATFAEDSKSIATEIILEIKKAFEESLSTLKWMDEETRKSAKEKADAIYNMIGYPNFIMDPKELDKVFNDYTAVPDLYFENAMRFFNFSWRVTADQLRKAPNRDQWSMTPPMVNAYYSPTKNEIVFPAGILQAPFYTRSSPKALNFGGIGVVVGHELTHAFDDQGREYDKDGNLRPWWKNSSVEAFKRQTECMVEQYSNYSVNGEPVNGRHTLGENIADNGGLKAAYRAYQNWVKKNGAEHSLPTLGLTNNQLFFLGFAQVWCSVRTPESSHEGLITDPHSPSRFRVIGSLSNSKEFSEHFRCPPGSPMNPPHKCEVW
Measurement type: IC50

1. CCCCC(CC(=O)NO)S(=O)(=O)c1ccc2ccccc2c1 (stereo unspecified) = 450 µM
2. CCCC[C@H](CC(=O)NO)S(=O)(=O)c1ccccc1 = > 100 µM
3. CCCC[C@@H](CC(=O)NO)S(=O)(=O)c1ccccc1 = > 100 µM
4. CCCCC(CC(=O)NO)S(=O)(=O)C1CCCCC1 (stereo unspecified) = 78 µM
5. CCCCC(CC(=O)NO)[S+]([O-])c1ccccc1 (stereo unspecified) = > 100 µM
6. CCCCC(CC(=O)NO)S(=O)(=O)c1ccccc1 (stereo unspecified) = > 50 µM

---

System: peptide deformylase (Streptococcus pneumoniae)
Test: Inhibitory activity against PDF isolated from Streptococcus pneumoniae
pIC50: −log10 of the molar value.
Measured pIC50 values are reported for all entries that follow.
Measurement type: pIC50

1) CCCCC(CC(=O)NO)[S+]([O-])c1ccccc1 (configuration not stated) = 6.62
2) CCCCC(CC(=O)NO)S(=O)(=O)c1ccccc1 (configuration not stated) = 6.47

---

Reported pIC50 values, Collagenase 3 (Homo sapiens).
pIC50: −log10 of the molar value.
Measurement type: pIC50

1. CCCC[C@H](CC(=O)NO)S(=O)(=O)c1ccccc1 = 7.10
2. CCCCC(CC(=O)NO)S(=O)(=O)C1CCCCC1 (stereo not given) = 7.00
3. CCCCC(CC(=O)NO)S(=O)(=O)c1ccc2ccccc2c1 (stereo not given) = 8.05
4. CCCC[C@@H](CC(=O)NO)S(=O)(=O)c1ccccc1 = 7.74
5. CCCCC(CC(=O)NO)S(=O)(=O)c1ccccc1 (stereo not given) = 7.66
